Values from patent US20120114682A1

target_desc: T1, Fibrinogen fragment D (human, UniProt P02671 130-216; P02675 164-491; P02679 114-432, limits assumed)
T1 construct: domain: Fragment D (or D-domain); Made by plasmin digestion of human fibrinogen and purified on GPRPAA beads; holds the C-terminal polymerization pockets without the N-terminal knobs; immobilised by amine coupling on the SPR chip; also called D-domain
T1 sequence (looked up) 1: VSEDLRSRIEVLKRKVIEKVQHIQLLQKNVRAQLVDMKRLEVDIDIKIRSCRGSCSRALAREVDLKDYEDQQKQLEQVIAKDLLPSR
T1 sequence (looked up) 2: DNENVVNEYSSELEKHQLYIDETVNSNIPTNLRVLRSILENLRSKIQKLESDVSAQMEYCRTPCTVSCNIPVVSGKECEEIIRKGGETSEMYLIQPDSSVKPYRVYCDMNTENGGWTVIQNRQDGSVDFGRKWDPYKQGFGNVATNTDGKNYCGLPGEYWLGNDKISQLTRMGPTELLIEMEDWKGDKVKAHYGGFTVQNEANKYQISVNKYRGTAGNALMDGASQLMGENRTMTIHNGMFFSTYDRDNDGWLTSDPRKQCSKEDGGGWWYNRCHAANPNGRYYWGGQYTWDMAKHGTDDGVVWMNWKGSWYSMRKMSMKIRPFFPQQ
T1 sequence (looked up) 3: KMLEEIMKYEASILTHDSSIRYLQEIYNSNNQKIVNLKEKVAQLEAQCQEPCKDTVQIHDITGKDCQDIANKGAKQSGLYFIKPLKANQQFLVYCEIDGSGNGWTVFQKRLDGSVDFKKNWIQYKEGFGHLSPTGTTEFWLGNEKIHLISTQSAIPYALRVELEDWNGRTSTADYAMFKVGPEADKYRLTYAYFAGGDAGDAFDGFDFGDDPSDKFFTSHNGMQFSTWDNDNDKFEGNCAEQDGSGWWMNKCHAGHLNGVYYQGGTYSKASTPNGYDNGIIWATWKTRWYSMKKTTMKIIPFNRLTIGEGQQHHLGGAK
assay_notes: SPR, heterogeneous ligand model, site 2 (KD2 = kd/ka)
recorded_endpoint: Kd
Answer format: value, then unit.

Ask: Any idea what Kd was measured for GPRVVERC (Synthetic (GenScript); also called knob 'A' peptide) ?
Result: 15.7 µM

Ask: Find the recorded Kd belonging to GPRPAAC (Synthetic (GenScript); kept reduced with immobilised TCEP; also called gold standard GPRP mimic; knob 'A' peptide) and report it.
Result: 8.52 µM
